- Tested on: RARa homodimer (NR concentration 270 nM)
- protocol-details: PBM binding z-score (relative to random genomic background probes); higher = stronger binding; sequences stand for … in GC…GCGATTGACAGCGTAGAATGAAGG

residue-string | PBM binding z-score
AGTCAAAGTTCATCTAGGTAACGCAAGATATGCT | 1.42
GCTTACGAGTCAAAGGTTATAGCATGAATAGAAT | -0.195
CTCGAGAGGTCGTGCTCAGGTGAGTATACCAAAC | -0.876
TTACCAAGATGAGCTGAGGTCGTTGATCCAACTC | -0.33
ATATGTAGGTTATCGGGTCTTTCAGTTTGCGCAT | 1.78
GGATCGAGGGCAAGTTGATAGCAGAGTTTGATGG | 0.158
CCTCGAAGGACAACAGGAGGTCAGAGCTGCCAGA | 0.491
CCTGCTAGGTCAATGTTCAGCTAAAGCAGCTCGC | -0.305
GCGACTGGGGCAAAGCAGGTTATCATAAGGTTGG | -0.943
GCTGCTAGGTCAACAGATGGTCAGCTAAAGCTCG | -0.595
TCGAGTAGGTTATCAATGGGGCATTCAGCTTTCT | -0.0483
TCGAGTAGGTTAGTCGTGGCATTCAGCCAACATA | -0.619

###

Each entry below carries its recorded PBM binding z-score.
- System: PPARg DBDmut:RXRa IVT, anti-PPARg (DBD mutation: PPARg1 K132A/R137A, NR concentration 270 nM, RXRa partner concentration 90 nM)
- protocol-details: PBM binding z-score (relative to random genomic background probes); higher = stronger binding; sequences stand for … in GC…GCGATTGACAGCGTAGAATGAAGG

residue-string | PBM binding z-score
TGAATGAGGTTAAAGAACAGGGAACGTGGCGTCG | 0.69
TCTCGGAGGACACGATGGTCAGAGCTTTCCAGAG | -0.797
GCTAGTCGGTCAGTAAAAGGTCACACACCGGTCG | 0.159
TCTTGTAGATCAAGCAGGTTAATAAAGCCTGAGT | -0.163
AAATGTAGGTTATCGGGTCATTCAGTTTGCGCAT | 2.76
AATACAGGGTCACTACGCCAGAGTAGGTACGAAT | 2.04
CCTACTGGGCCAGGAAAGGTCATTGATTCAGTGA | -0.225
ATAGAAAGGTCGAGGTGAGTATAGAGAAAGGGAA | 1.74
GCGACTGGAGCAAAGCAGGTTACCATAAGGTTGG | -1.39
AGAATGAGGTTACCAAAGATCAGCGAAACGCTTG | 1.77
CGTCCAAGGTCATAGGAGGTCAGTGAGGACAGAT | 1.02
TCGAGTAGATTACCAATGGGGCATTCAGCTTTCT | -0.19

###

Each entry below carries its recorded PBM binding z-score.
- Test system: PPARa:RXRa (NR concentration 270 nM, RXRa partner concentration 90 nM)
- protocol-details: PBM binding z-score (relative to random genomic background probes); higher = stronger binding; sequences stand for … in GC…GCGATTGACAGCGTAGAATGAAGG
readout-kind: PBM binding z-score

residue-string | reported
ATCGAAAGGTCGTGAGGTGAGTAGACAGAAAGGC | 4.93
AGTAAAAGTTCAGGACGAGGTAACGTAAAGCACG | 2.63
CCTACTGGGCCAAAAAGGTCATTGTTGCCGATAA | 4.47
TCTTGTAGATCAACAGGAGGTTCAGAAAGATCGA | 0.453
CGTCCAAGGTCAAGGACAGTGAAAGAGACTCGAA | 5.57
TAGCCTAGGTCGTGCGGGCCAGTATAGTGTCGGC | 0.275
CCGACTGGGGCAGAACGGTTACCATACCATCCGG | -0.574
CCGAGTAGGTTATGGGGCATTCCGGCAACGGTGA | 1.97
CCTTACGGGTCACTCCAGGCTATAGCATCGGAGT | 4.07
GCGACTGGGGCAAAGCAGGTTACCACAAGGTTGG | 1.14
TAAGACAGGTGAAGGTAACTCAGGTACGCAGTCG | 0.916
AGTCAAAGTTCATGACGAGGTAACGTAAAGCACG | 5.01

###

- Tested on: RARa:RXR (NR concentration 270 nM, RXRa partner concentration 90 nM)
- protocol-details: PBM binding z-score (relative to random genomic background probes); higher = stronger binding; sequences stand for … in GC…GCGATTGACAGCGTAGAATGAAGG
Each entry below carries its recorded PBM binding z-score.
readout-kind: PBM binding z-score

residue-string | reported
TCTAGCAGGCCAGAGGGTCATTCAAGAGGTACGG | 2.79
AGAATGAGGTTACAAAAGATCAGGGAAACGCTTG | 1.88
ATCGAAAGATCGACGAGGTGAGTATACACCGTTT | 0.105
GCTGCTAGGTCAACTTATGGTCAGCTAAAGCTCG | 3.6
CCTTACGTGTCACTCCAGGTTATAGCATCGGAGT | 0.864
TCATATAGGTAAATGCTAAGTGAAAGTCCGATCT | 0.974

###

- System: PXR homodimer (NR concentration 270 nM)
- protocol-details: PBM binding z-score (relative to random genomic background probes); higher = stronger binding; sequences stand for … in GC…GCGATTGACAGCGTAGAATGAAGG

residue-string | PBM binding z-score
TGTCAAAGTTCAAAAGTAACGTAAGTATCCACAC | 3.74
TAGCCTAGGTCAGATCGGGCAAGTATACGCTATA | -0.431
CGTCCAAGGTCAATGCTAGGACAGTGAAAGCATT | 0.241
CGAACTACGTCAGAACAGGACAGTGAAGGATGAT | -0.0465
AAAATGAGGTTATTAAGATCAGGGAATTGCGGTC | 0.722
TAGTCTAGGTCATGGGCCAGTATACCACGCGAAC | 0.209

###

- Test system: PPARg DBDmut IVT, anti-PPARg (DBD mutation: PPARg1 K132A/R137A, NR concentration 270 nM)
- protocol-details: PBM binding z-score (relative to random genomic background probes); higher = stronger binding; sequences stand for … in GC…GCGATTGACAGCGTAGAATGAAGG

residue-string | study-target | PBM binding z-score
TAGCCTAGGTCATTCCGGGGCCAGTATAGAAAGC | PPARg DBDmut IVT, anti-PPARg (DBD mutation: PPARg1 K132A/R137A, NR concentration 270 nM) | 0.258
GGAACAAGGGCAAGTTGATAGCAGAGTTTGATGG | PPARg DBDmut IVT, anti-PPARg (DBD mutation: PPARg1 K132A/R137A, NR concentration 270 nM) | -0.563
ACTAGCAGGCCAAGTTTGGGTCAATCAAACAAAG | PPARg DBDmut IVT, anti-PPARg (DBD mutation: PPARg1 K132A/R137A, NR concentration 270 nM) | -0.879
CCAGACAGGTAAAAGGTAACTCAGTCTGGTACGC | PPARg DBDmut IVT, anti-PPARg (DBD mutation: PPARg1 K132A/R137A, NR concentration 270 nM) | -0.566
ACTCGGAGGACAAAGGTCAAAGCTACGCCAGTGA | PPARg DBDmut IVT, anti-PPARg (DBD mutation: PPARg1 K132A/R137A, NR concentration 270 nM) | -0.288
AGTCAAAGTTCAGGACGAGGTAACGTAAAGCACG | PPARg DBDmut IVT, anti-PPARg (DBD mutation: PPARg1 K132A/R137A, NR concentration 270 nM) | 0.321

###

- System: PPARg homodimer (NR concentration 180 nM)
- protocol-details: PBM binding z-score (relative to random genomic background probes); higher = stronger binding; sequences stand for … in GC…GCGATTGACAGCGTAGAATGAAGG
readout-kind: PBM binding z-score

residue-string | reported
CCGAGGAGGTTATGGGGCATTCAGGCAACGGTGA | 1.13
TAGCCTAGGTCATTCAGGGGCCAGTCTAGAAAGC | 2
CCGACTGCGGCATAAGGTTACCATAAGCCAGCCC | 0.108
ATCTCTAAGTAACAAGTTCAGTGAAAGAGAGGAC | 1.43
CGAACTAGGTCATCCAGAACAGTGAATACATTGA | 3.59
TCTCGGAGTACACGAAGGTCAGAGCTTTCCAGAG | 1.11
